The reported numbers originate from paper PMC5540273.

System: PIK4CB;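 also: KINOMEscan kinase panel screen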
Construct: gene PI4KB
conditionInfo: concentration: 1 μM, replicates: in singlicate; n = 1
For each record, write down the corresponding %Inh.
Answers are plain numbers, in %.

COC(=O)C(NC(=O)NC1CCN(c2ccnc(Nc3ccc(F)cc3)n2)C1)c1ccccc1 (centres unmarked)
16
Cc1ccc(NC(=O)c2ccc(Cl)cc2)cc1-c1ccc(C(=O)Nc2ccncc2)cc1
0
COC(=O)c1cccc(NC(=O)NC2CCN(c3ccnc(Nc4ccc(F)cc4)n3)C2)c1 (centres unmarked)
6
Fc1ccc(-c2nn3cccc(F)c3c2-c2ccncc2)cc1
0

// switching to the query compound
Problem: Given the entry `COc1ccc(CSc2nnc(-c3ccc4ncsc4c3)o2)cc1C(F)(F)F` , report its measured %Inh.
Solution: 0
